The reader will find reported pIC50 values listed item by item below.
target: TNIK (Homo sapiens (Human)); assay: TNIK enzymatic assay (radiometric kinase inhibition); format: biochemical; conditions: TNIK enzymatic assay, Table 1; read-out: IC50
Sequence (Q9UKE5 whole entry): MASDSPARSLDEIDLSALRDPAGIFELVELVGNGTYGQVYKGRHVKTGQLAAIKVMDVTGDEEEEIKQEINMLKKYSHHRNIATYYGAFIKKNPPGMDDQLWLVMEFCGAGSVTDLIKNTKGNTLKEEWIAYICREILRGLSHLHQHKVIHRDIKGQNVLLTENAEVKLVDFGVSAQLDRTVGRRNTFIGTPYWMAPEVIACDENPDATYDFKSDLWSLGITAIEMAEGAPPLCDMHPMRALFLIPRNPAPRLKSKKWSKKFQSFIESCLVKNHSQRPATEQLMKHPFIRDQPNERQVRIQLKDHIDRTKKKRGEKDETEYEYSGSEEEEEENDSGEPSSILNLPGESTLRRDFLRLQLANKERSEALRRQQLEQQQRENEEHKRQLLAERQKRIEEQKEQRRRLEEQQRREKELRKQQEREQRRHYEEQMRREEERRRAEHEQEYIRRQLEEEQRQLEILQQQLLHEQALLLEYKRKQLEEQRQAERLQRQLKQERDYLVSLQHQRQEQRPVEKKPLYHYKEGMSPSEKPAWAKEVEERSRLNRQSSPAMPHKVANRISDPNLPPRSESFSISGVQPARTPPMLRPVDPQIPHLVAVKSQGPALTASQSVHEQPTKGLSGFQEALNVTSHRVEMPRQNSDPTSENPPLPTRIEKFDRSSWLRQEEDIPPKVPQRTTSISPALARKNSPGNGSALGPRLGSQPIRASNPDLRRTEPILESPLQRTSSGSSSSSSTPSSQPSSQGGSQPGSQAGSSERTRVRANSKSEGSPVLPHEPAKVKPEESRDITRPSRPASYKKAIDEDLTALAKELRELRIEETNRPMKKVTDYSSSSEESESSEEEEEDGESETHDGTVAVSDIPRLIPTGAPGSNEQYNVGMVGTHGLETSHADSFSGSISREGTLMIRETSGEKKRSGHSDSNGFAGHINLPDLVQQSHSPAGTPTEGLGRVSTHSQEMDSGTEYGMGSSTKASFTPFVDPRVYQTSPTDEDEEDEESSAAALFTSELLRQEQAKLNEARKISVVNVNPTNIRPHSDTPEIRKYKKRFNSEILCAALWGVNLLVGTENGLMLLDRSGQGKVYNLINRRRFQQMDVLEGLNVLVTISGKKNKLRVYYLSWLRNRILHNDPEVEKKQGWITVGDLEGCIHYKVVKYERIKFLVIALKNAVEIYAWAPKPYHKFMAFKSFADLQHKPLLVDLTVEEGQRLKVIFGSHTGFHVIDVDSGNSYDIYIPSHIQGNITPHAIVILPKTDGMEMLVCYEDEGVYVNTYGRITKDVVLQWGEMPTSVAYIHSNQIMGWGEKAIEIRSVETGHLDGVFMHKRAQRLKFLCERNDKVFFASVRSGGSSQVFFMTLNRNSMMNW
pIC50: −log10 of the molar value.

Below, each entry is followed by its recorded pIC50 result.
# compound, endpoint-value
rows = [
    ("O=C(Nc1cc(F)ccc1F)c1ccc(-c2c(-c3ccc(F)cc3)ncn2C2CCCC2)o1 [Compound 3]", "> 8.00"),
    ("COc1ccc(OC)c(NC(=O)c2ccc(-c3c(-c4ccc(F)cc4)ncn3C3CCCC3)o2)c1 [Compound 2]", "> 8.00"),
]

# evaluate next
Please look at this compound and report its pIC50: COc1ccccc1NC(=O)c1ccc(-c2c(-c3ccc(F)cc3)ncn2C2CCCC2)o1 [Compound 50]
> 8.00

----------
target: TNIK (Homo sapiens (Human)); experiment: TNIK enzymatic assay (radiometric kinase inhibition); format: biochemical; settings: read-out: TNIK_IC50
pIC50: −log10 of the molar value.
observed-property: pIC50

# compound, endpoint-value
records = [
    ("O=C(Nc1ccncc1F)c1ccc(-c2c(-c3ccc(F)cc3)ncn2[C@@H]2CCC[C@H]2O)o1 (racemic) [Compound A-61]", 7.54),
    ("CCc1cccc(C)c1NC(=O)c1ccc(-c2c(-c3ccc(F)cc3)ncn2C2CCCC2)o1", 6.05),
    ("O=C(Nc1ccccc1F)c1ccc(-c2c(-c3ccc(F)nc3)ncn2C2CCCC2)o1", 7.44),
]

[1] CCc1cccc(NC(=O)c2ccc(-c3c(-c4ccc(F)cc4)ncn3C3CCCC3)o2)c1
[2] CC(=O)c1ccc(NC(=O)c2ccc(-c3c(-c4ccc(F)cc4)ncn3C3CCCCC3)o2)cc1
Between 1 and 2 , which one shows the larger pIC50 value? Could you answer with the label of the item you picked?
2

[1] COc1cc(NC(=O)c2ccc(-c3c(-c4ccc(F)cc4)ncn3C3CCCCC3)o2)cc(OC)c1
[2] O=C(Nc1ccccc1F)c1ccc(-c2c(-c3ccc(F)cc3)ncn2CC2CCOC2)o1 (centres unmarked)
[3] Cc1cc(F)ccc1NC(=O)c1ccc(-c2c(-c3ccc(F)cc3)ncn2C2CCCC2)o1
Ordering criterion: pIC50; begin with the maximum. Order the labels as requested and list them.
2, 3, 1
(2: 7.43, 3: 6.76, 1: 6.56)

[A] O=C(Nc1ccc(F)c(F)c1)c1ccc(-c2c(-c3ccc(F)cc3)ncn2C2CCCC2)o1
[B] Cc1cccc(NC(=O)c2ccc(-c3c(-c4ccc(F)cc4)ncn3C3CCCC3)o2)c1
Please indicate which entry, A or B , has the lower recorded pIC50 value. Could you answer with the label of the item you picked?
A

Values were extracted from patent US11739078B2.
